Test system: Candida
PROTOCOL_SUMMARY: In vitro MIC, NCCLS M27A, Candida species
Type: cell-based
Set-up: unit not given beside the values
MEASUREMENT_PARAMETERS: C. glabrata strain 90030
The molecules listed here are annotated with their MIC, C. glabrata 90030.
// response body must contain only the number

Sample answers from the record:
[
  {
    "MOLECULE": "Cc1ccc(Cl)cc1N1CCN(c2ccc(-n3cnn([C@H](C)[C@](O)(Cn4cncn4)c4ccc(F)cc4F)c3=O)cc2)CC1",
    "OBSERVED": 0.50
  },
  {
    "MOLECULE": "O=c1n(-c2ccc(N3CCN(c4cc(Cl)cc(Cl)c4)CC3)cc2)cnn1CC(O)(Cn1cncn1)c1ccc(F)cc1F (stereo not drawn)",
    "OBSERVED": 0.50
  }
]

Turning now to a further molecule:
Q: Return reported MIC, C. glabrata 90030. Input molecule: C[C@@H](n1ncn(-c2ccc(N3CCN(c4ccc(F)c(Cl)c4)CC3)cc2)c1=O)[C@@](O)(Cn1cncn1)c1ccc(F)cc1F
Ans: 0.50

---

The compounds listed here are annotated with their log10 of MIC, H. capsulatum.
System: Histoplasma capsulatum
Type: cell-based
Heads up: the numbers are on a log10 scale; they represent MIC, H. capsulatum in µg/mL.

Sample answers from the record:
[
  {
    "COMPOUND": "COc1ccc(F)cc1N1CCN(c2ccc(-n3c(C)nn([C@H](C)[C@@](O)(Cn4cncn4)c4ccc(F)cc4F)c3=O)cc2)CC1",
    "log10 of MIC, H. capsulatum": 0.30
  },
  {
    "COMPOUND": "C[C@@H](n1ncn(-c2ccc(N3CCN(c4ccc(Cl)c(Cl)c4)CC3)cc2)c1=O)[C@@](O)(Cn1cncn1)c1ccc(F)cc1F",
    "log10 of MIC, H. capsulatum": 0.30
  },
  {
    "COMPOUND": "C[C@@H](n1ncn(-c2ccc(N3CCN(c4ccc(F)c(Cl)c4)CC3)cc2)c1=O)[C@](O)(Cn1cncn1)c1ccc(F)cc1F",
    "log10 of MIC, H. capsulatum": -0.92
  },
  {
    "COMPOUND": "Cc1nn([C@H](C)[C@](O)(Cn2cncn2)c2ccc(F)cc2F)c(=O)n1-c1ccc(N2CCN(c3cc(Cl)cc(Cl)c3)CC2)cc1",
    "log10 of MIC, H. capsulatum": -0.60
  },
  {
    "COMPOUND": "Cc1ccc(Cl)cc1N1CCN(c2ccc(-n3cnn([C@H](C)[C@](O)(Cn4cncn4)c4ccc(F)cc4F)c3=O)cc2)CC1",
    "log10 of MIC, H. capsulatum": -0.92
  }
]

Q: Return reported log10 of MIC, H. capsulatum. Input compound: Cc1ccc(N2CCN(c3ccc(-n4cnn([C@H](C)[C@@](O)(Cn5cncn5)c5ccc(F)cc5F)c4=O)cc3)CC2)cc1Cl
Ans: -0.60

Q: Return reported log10 of MIC, H. capsulatum. Input compound: Cc1ccc(N2CCN(c3ccc(-n4cnn(CC(O)(Cn5cncn5)c5ccc(F)cc5F)c4=O)cc3)CC2)cc1C (centres unmarked)
Ans: -2.40

Q: Return reported log10 of MIC, H. capsulatum. Input compound: C[C@@H](n1ncn(-c2ccc(N3CCN(c4cccc(C(F)(F)F)c4)CC3)cc2)c1=O)[C@@](O)(Cn1cncn1)c1ccc(F)cc1F
Ans: -1.22

Q: Return reported log10 of MIC, H. capsulatum. Input compound: C[C@@H](n1ncn(-c2ccc(N3CCN(c4ccc(Cl)cc4)CC3)cc2)c1=O)[C@](O)(Cn1cncn1)c1ccc(F)cc1F
Ans: -1.22

Q: Return reported log10 of MIC, H. capsulatum. Input compound: Cc1ccc(N2CCN(c3ccc(-n4cnn([C@H](C)[C@@](O)(Cn5cncn5)c5ccc(F)cc5F)c4=O)cc3)CC2)c(C)c1
Ans: -0.30

Q: Return reported log10 of MIC, H. capsulatum. Input compound: C[C@@H](n1ncn(-c2ccc(N3CCN(c4ccccc4)CC3)cc2)c1=O)[C@@](O)(Cn1cncn1)c1ccc(F)cc1F
Ans: -0.92

---

Tested on: Candida
PROTOCOL_SUMMARY: In vitro MIC, NCCLS M27A, Candida species
Format: cell-based
Set-up: unit not given beside the values
MEASUREMENT_PARAMETERS: C. glabrata strain 90030
ATTRIBUTE_MEASURED: MIC, C. glabrata 90030
// response body must contain only the number

[
  {
    "COMPOUND": "O=c1n(-c2ccc(N3CCN(c4ccc(F)c(Cl)c4)CC3)cc2)cnn1CC(O)(Cn1cncn1)c1ccc(F)cc1F (stereo not drawn) [Compound 53]",
    "MIC, C. glabrata 90030": 0.50
  },
  {
    "COMPOUND": "Cc1nn([C@H](C)[C@@](O)(Cn2cncn2)c2ccc(F)cc2F)c(=O)n1-c1ccc(N2CCN(c3ccc(Cl)cc3Cl)CC2)cc1 [Compound 34]",
    "MIC, C. glabrata 90030": 0.50
  },
  {
    "COMPOUND": "Cc1nn(CC(O)(Cn2cncn2)c2ccc(F)cc2F)c(=O)n1-c1ccc(N2CCN(c3ccc(Cl)cc3)CC2)cc1 (stereo not drawn) [Compound 46]",
    "MIC, C. glabrata 90030": 6.25
  }
]

Q: Return reported MIC, C. glabrata 90030. Input compound: O=c1n(-c2ccc(N3CCN(c4ccc([N+](=O)[O-])cc4[N+](=O)[O-])CC3)cc2)cnn1CC(O)(Cn1cncn1)c1ccc(F)cc1F (stereo not drawn) [Compound 40]
Ans: 0.80

Q: Return reported MIC, C. glabrata 90030. Input compound: Cc1ccc(N2CCN(c3ccc(-n4cnn(CC(O)(Cn5cncn5)c5ccc(F)cc5F)c4=O)cc3)CC2)cc1Cl (stereo not drawn) [Compound 49]
Ans: 0.25

---

Tested on: Candida
PROTOCOL_SUMMARY: In vitro MIC, NCCLS M27A, Candida species
Format: cell-based
Parameters: unit not given beside the values
MEASUREMENT_PARAMETERS: C. glabrata strain 90030
The compounds listed here are annotated with their MIC, C. glabrata 90030.

[
  {
    "COMPOUND": "Cc1ccc(N2CCN(c3ccc(-n4cnn(CC(O)(Cn5cncn5)c5ccc(F)cc5F)c4=O)cc3)CC2)cc1 (stereo not shown)",
    "OBSERVED": 0.10
  },
  {
    "COMPOUND": "C[C@@H](n1ncn(-c2ccc(N3CCN(c4ccc(F)c(Cl)c4)CC3)cc2)c1=O)[C@](O)(Cn1cncn1)c1ccc(F)cc1F",
    "OBSERVED": 0.50
  },
  {
    "COMPOUND": "Cc1ccc(N2CCN(c3ccc(-n4cnn(CC(O)(Cn5cncn5)c5ccc(F)cc5F)c4=O)cc3)CC2)cc1C (stereo not shown)",
    "OBSERVED": 0.25
  },
  {
    "COMPOUND": "COc1ccccc1N1CCN(c2ccc(-n3c(C)nn(CC(O)(Cn4cncn4)c4ccc(F)cc4F)c3=O)cc2)CC1 (stereo not shown)",
    "OBSERVED": 12.50
  },
  {
    "COMPOUND": "O=c1n(-c2ccc(N3CCN(c4ccc(Cl)cc4Cl)CC3)cc2)cnn1CC(O)(Cn1cncn1)c1ccc(F)cc1F (stereo not shown)",
    "OBSERVED": 0.50
  }
]

Turning now to a further compound:
Q: Return reported MIC, C. glabrata 90030. Input compound: C[C@@H](n1ncn(-c2ccc(N3CCN(c4ccc(Cl)c(Cl)c4)CC3)cc2)c1=O)[C@@](O)(Cn1cncn1)c1ccc(F)cc1F
Ans: >16

---

Test system: Candida
PROTOCOL_SUMMARY: In vitro MIC, NCCLS M27A, Candida species
Assay type: cell-based
Set-up: unit not given beside the values
MEASUREMENT_PARAMETERS: C. glabrata strain 90030
ATTRIBUTE_MEASURED: MIC, C. glabrata 90030

[
  {
    "COMPOUND": "O=c1n(-c2ccc(N3CCN(c4ccc(F)c(F)c4F)CC3)cc2)cnn1CC(O)(Cn1cncn1)c1ccc(F)cc1F (stereo not shown)",
    "MIC, C. glabrata 90030": 0.50
  }
]

Q: Return reported MIC, C. glabrata 90030. Input compound: O=c1n(-c2ccc(N3CCN(c4ccc(Cl)cc4)CC3)cc2)cnn1CC(O)(Cn1cncn1)c1ccc(F)cc1F (stereo not shown)
Ans: 3.12

Q: Return reported MIC, C. glabrata 90030. Input compound: C[C@@H](n1ncn(-c2ccc(N3CCN(c4ccccc4F)CC3)cc2)c1=O)[C@](O)(Cn1cncn1)c1ccc(F)cc1F
Ans: 0.12

---

Tested on: Candida
PROTOCOL_SUMMARY: In vitro MIC, NCCLS M27A, Candida species
Format: cell-based
Design: unit not given beside the values
MEASUREMENT_PARAMETERS: C. glabrata strain 90030
ATTRIBUTE_MEASURED: MIC, C. glabrata 90030
// response body must contain only the number

Sample answers from the record:
[
  {
    "SMILES_TEXT": "CCc1ccccc1N1CCN(c2ccc(-n3c(C)nn([C@H](C)[C@](O)(Cn4cncn4)c4ccc(F)cc4F)c3=O)cc2)CC1",
    "MIC, C. glabrata 90030": 0.50
  },
  {
    "SMILES_TEXT": "C[C@@H](n1ncn(-c2ccc(N3CCN(c4ccc(Cl)c(Cl)c4)CC3)cc2)c1=O)[C@](O)(Cn1cncn1)c1ccc(F)cc1F",
    "MIC, C. glabrata 90030": 0.12
  },
  {
    "SMILES_TEXT": "C[C@@H](n1ncn(-c2ccc(N3CCN(c4cccc(C(F)(F)F)c4)CC3)cc2)c1=O)[C@@](O)(Cn1cncn1)c1ccc(F)cc1F",
    "MIC, C. glabrata 90030": 0.50
  },
  {
    "SMILES_TEXT": "Cc1nn([C@H](C)[C@](O)(Cn2cncn2)c2ccc(F)cc2F)c(=O)n1-c1ccc(N2CCN(c3ccc(Cl)cc3Cl)CC2)cc1",
    "MIC, C. glabrata 90030": 0.25
  }
]

Turning now to a further compound:
Q: Return reported MIC, C. glabrata 90030. Input compound: Cc1nn([C@H](C)[C@](O)(Cn2cncn2)c2ccc(F)cc2F)c(=O)n1-c1ccc(N2CCN(c3cc(Cl)cc(Cl)c3)CC2)cc1
Ans: 0.50
